Values compiled from patent US8901118B2.

Please provide measured IC50 for the entries that follow.
target: BCR-NTRK1 BaF3 cells (Homo sapiens, UniProt P04629); construct: fused on or other part: P11274 (Breakpoint cluster region protein); assay: BaF3 BCR-NTRK1 cell proliferation assay (ATPlite); conditions: read-out: Inhibition of Cell Proliferation IC50, BCR/BaF3 TrkA
Sequence (P04629 510-781): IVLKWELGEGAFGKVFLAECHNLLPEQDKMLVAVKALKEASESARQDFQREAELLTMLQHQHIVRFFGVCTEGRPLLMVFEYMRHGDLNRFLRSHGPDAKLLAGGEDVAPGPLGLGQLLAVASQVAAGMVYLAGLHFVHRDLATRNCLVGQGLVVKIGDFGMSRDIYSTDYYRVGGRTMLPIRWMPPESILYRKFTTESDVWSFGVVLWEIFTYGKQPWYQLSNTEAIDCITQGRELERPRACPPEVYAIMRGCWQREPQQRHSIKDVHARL

The cases that follow already have their IC50 on record.
Problem: Fill blank: measured IC50 of the compound "COc1ccc(Nc2ccc(C(=O)c3c[nH]c4ncnc(N[C@@H](C)c5ccc(F)cc5)c34)c(F)n2)cn1" is ____.
Result: < 10 nM

Problem: Try this compound too: "O=C(c1ccc(Nc2ccc(C(F)(F)F)nc2)nc1F)c1c[nH]c2ncnc(NC3CC3)c12"
Result: < 10 nM

Problem: Try this compound too: "COCCOc1ncnc2[nH]cc(Cc3ccc(Nc4ccc(OC)nc4)nc3F)c12"
Result: < 1000 nM

Problem: Try this compound too: "Cc1cnc2[nH]cc(Cc3cnc(Nc4cc(C5CC5)n[nH]4)nc3)c2c1"
Result: < 1000 nM

Problem: Try this compound too: "CNc1ncnc2[nH]cc(C(=O)c3ccc(Nc4ccc(C5CC5)nc4)nc3F)c12"
Result: < 10 nM

Hi! Can you tell me IC50 for each of these compounds?
1. Cc1ccc(Nc2ccc(Cc3c[nH]c4ncnc(C5CC5)c34)c(F)n2)cn1
2. O=C(c1ccc(Nc2ccc(C3CC3)nc2)nc1F)c1c[nH]c2ncnc(NC3CC3)c12
3. CC1CCC(Nc2ncc(Cc3c[nH]c4ncc(Cl)cc34)cn2)CC1 (centres unmarked)

Result:
1: < 1000 nM; 2: < 10 nM; 3: > 10000 nM

---

biological target: BCR-NTRK1 BaF3 cells (Homo sapiens); construct: fused on or other part: P11274 (Breakpoint cluster region protein); experiment: BaF3 BCR-NTRK1 cell proliferation assay (ATPlite); conditions: read-out: Inhibition of Cell Proliferation IC50, BCR/BaF3 TrkA
Experimental Readout: IC50

The cases that follow already have their IC50 on record.
Problem: Fill blank: measured IC50 of the compound "CCOc1ccc(Nc2ccc(C(=O)c3c[nH]c4ncc(C)cc34)c(F)n2)cn1" is ____.
Result: < 0.1 µM

Problem: Try this compound too: "Fc1ccccc1Nc1ncc(Cc2c[nH]c3ncc(Cl)cc23)cn1"
Result: > 10 µM

Problem: Try this compound too: "CCC(CC)Nc1ncnc2[nH]cc(C(=O)c3ccc(Nc4ccc(OC)nc4)nc3F)c12"
Result: < 0.01 µM

Problem: Try this compound too: "O=C(c1ccc(NC2CCC(F)(F)CC2)nc1Cl)c1c[nH]c2ncnc(NCC(F)(F)F)c12"
Result: > 1 µM

Problem: Try this compound too: "CCc1ccc(Nc2ccc(C(=O)c3c[nH]c4ncnc(NC5CC5)c34)c(F)n2)cn1"
Result: < 0.01 µM

Hi! Can you tell me IC50 for each of these compounds?
1. COCCOc1ncnc2[nH]cc(Cc3ccc(Nc4ccc(C)nc4)nc3F)c12
2. CCOc1ccc(Nc2ccc(Cc3c[nH]c4ncnc(C)c34)c(F)n2)cn1
3. Cc1cnc2[nH]cc(Cc3cnc(Nc4ccc(C(O)(C(F)(F)F)C(F)(F)F)cc4)nc3)c2c1

Result:
1. < 1 µM
2. < 0.1 µM
3. < 0.01 µM

Hi! Can you tell me IC50 for each of these compounds?
1. Fc1nc(NC2CCC(F)(F)CC2)ccc1Cc1c[nH]c2ncnc(NCC(F)(F)F)c12
2. CCn1cc(Nc2ccc(Cc3c[nH]c4ncnc(C)c34)c(F)n2)cn1
3. CNc1ncnc2[nH]cc(C(=O)c3ccc(Nc4ccc(C)nc4)nc3F)c12
4. CCc1ccc(Nc2ccc(C(=O)c3c[nH]c4ncnc(NC5CCCC5)c34)c(F)n2)cn1
5. Clc1cnc2[nH]cc(Cc3cnc(NC4CCCCC4)nc3)c2c1
6. Cc1cnc2[nH]cc(C(=O)c3ccc(Nc4ccc(C)nc4)nc3F)c2c1
7. CCOc1ccc(Nc2ncc(Cc3c[nH]c4ncc(C)cc34)cn2)cn1

Result:
1. < 1 µM
2. < 1 µM
3. < 0.1 µM
4. < 0.01 µM
5. > 10 µM
6. < 0.1 µM
7. < 0.1 µM

Hi! Can you tell me IC50 for each of these compounds?
1. Clc1ccc(Nc2ncc(Cc3c[nH]c4ncc(Cl)cc34)cn2)cc1
2. CCNc1ncnc2[nH]cc(C(=O)c3ccc(Nc4ccc(CC)nc4)nc3F)c12

Result:
["< 1 µM", "< 0.01 µM"]

---

The following compounds have recorded IC50 on CYP2D6 (Homo sapiens, UniProt P10635).
Sequence (P10635 whole entry): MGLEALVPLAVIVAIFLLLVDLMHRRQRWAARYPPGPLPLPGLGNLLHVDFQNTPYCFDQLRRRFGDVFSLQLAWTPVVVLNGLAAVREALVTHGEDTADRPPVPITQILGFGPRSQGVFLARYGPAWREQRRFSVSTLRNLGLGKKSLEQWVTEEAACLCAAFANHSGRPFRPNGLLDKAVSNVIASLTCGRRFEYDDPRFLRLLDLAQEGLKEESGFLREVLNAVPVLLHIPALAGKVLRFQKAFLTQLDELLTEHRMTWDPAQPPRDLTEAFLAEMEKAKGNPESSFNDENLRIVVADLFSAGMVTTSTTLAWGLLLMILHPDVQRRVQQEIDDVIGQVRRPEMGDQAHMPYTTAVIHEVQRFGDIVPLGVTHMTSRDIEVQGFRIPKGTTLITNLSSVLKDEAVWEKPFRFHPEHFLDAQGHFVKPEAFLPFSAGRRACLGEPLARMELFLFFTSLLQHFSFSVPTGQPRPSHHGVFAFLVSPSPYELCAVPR

The cases that follow already have their IC50 on record.
Problem: Fill blank: measured IC50 of the compound "CCCCNc1ncnc2[nH]cc(C(=O)c3ccc(Nc4ccc(CC)nc4)nc3F)c12" is ____.
Result: < 5 µM

Problem: Try this compound too: "CCCNc1ncnc2[nH]cc(C(=O)c3ccc(Nc4ccc(OC)nc4)nc3F)c12"
Result: > 10 µM

Problem: Try this compound too: "CCNc1ncnc2[nH]cc(C(=O)c3ccc(Nc4ccc(OC)nc4)nc3F)c12"
Result: > 10 µM

Problem: Try this compound too: "COc1ccc(Nc2ccc(C(=O)c3c[nH]c4ncnc(C5CC5)c34)c(F)n2)cn1"
Result: 5 to 10 µM

Problem: Try this compound too: "CCN1CCC(Nc2ncnc3[nH]cc(C(=O)c4ccc(Nc5ccc(OC)nc5)nc4F)c23)CC1"
Result: > 10 µM

Hi! Can you tell me IC50 for each of these compounds?
1. Cc1cnc2[nH]cc(Cc3ccc(Nc4ccc(C)nc4)nc3F)c2c1
2. O=C(c1ccc(Nc2ccc(C3CC3)nc2)nc1F)c1c[nH]c2ncnc(NC3CC3)c12

Result:
> 10 µM
> 10 µM

Hi! Can you tell me IC50 for each of these compounds?
1. Clc1cnc2[nH]cc(Cc3cnc(NC4CCCCC4)nc3)c2c1
2. CCNc1ncnc2[nH]cc(C(=O)c3ccc(Nc4ccc(CC)nc4)nc3F)c12
3. Fc1nc(NC2CCC(F)(F)CC2)ccc1Cc1c[nH]c2ncnc(NC3CC3)c12

Result:
1: > 10 µM; 2: > 10 µM; 3: 5 to 10 µM

Hi! Can you tell me IC50 for each of these compounds?
1. CCn1cc(Nc2ccc(Cc3c[nH]c4ncnc(C)c34)c(F)n2)cn1
2. O=C(c1ccc(NC2CCC(F)(F)CC2)nc1F)c1c[nH]c2ncnc(NC3CC3)c12

Result:
1. > 10 µM
2. > 10 µM

---

target: CYP3A4(BFC) (Homo sapiens)
Sequence (P08684 whole entry): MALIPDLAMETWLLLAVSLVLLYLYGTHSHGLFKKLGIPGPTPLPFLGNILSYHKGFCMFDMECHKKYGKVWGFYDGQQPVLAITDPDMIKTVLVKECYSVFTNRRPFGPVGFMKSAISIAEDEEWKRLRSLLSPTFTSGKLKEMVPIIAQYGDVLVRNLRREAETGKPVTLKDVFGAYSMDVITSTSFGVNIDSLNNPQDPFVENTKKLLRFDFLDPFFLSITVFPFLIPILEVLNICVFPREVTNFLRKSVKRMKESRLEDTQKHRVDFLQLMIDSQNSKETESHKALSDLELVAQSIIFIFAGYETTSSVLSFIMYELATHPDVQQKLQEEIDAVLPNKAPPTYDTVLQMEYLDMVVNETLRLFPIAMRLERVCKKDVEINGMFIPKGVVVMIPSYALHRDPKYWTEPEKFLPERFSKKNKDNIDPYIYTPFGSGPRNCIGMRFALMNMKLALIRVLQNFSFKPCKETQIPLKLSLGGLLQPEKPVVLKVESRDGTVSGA
Experimental Readout: IC50

Problem: Fill blank: measured IC50 of the compound "Cc1cnc2[nH]cc(Cc3ccc(Nc4ccc(C)nc4)nc3F)c2c1" is ____.
Result: 5 to 10 µM

Problem: Try this compound too: "O=C(c1ccc(Nc2ccc(C3CC3)nc2)nc1F)c1c[nH]c2ncnc(NC3CC3)c12"
Result: > 10 µM

Problem: Try this compound too: "CCn1cc(Nc2ccc(Cc3c[nH]c4ncnc(OCCOC)c34)c(F)n2)cn1"
Result: 5 to 10 µM

Problem: Try this compound too: "COCCOc1ncnc2[nH]cc(Cc3ccc(Nc4ccc(OC)nc4)nc3F)c12"
Result: 5 to 10 µM

Problem: Try this compound too: "CCOc1ncnc2[nH]cc(C(=O)c3ccc(Nc4ccc(OC)nc4)nc3F)c12"
Result: < 5 µM

Problem: Try this compound too: "Fc1nc(NC2CCC(F)(F)CC2)ccc1Cc1c[nH]c2ncc(Cl)cc12"
Result: > 10 µM

Problem: Try this compound too: "CNc1ncnc2[nH]cc(C(=O)c3ccc(Nc4cncc(OC)c4)nc3F)c12"
Result: > 10 µM

Problem: Try this compound too: "CCc1ccc(Nc2ccc(Cc3c[nH]c4ncnc(C)c34)c(F)n2)cn1"
Result: > 10 µM

Hi! Can you tell me IC50 for each of these compounds?
1. CCc1ccc(Nc2ccc(C(=O)c3c[nH]c4ncnc(NC5CCOCC5)c34)c(F)n2)cn1
2. Cc1ccc(Nc2ccc(C(=O)c3c[nH]c4ncnc(NC5CCCCC5)c34)c(F)n2)cn1
3. CCn1cc(Nc2ccc(Cc3c[nH]c4ncnc(C)c34)c(F)n2)cn1
4. COCCCNc1ncnc2[nH]cc(C(=O)c3ccc(Nc4ccc(OC)nc4)nc3F)c12
5. COc1ccc(Nc2ccc(C(=O)c3c[nH]c4ncnc(NC5CCC(F)(F)CC5)c34)c(F)n2)cn1
6. CCC(CC)Nc1ncnc2[nH]cc(C(=O)c3ccc(Nc4ccc(OC)nc4)nc3F)c12

Result:
1: > 10 µM; 2: > 10 µM; 3: > 10 µM; 4: > 10 µM; 5: > 10 µM; 6: > 10 µM

---

molecular target: BCR-FMS BaF3 cells (Homo sapiens); construct: fused on or other part: P11274 (Breakpoint cluster region protein); experiment: BaF3 BCR-FMS cell proliferation assay (ATPlite); conditions: read-out: Inhibition of Cell Proliferation IC50, BCR/BaF3 Fms
Sequence (P07333 582-910): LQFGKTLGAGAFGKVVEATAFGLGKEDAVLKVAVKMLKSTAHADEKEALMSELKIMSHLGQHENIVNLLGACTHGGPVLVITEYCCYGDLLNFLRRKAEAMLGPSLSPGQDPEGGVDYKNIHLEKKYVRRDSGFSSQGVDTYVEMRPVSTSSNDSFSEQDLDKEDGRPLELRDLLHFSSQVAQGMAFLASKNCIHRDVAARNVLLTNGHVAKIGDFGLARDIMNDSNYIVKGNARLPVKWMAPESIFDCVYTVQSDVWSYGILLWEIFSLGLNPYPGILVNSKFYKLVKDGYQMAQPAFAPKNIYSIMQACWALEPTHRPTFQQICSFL
pIC50: −log10 of the molar value.
Please provide measured pIC50 for the entries that follow.

The cases that follow already have their pIC50 on record.
Problem: Fill blank: measured pIC50 of the molecule "COc1ccc(Nc2ccc(C(=O)c3c[nH]c4ncnc(C5CC5)c34)c(F)n2)cn1" is ____.
Result: > 7.00

Problem: Try this molecule too: "CCOc1ncnc2[nH]cc(Cc3ccc(Nc4ccc(C)nc4)nc3F)c12"
Result: > 8.00

Problem: Try this molecule too: "CCC(CC)Nc1ncnc2[nH]cc(C(=O)c3ccc(Nc4ccc(OC)nc4)nc3F)c12"
Result: > 8.00

From here, focus on the item given below.
Problem: Fill blank: measured pIC50 of the molecule "Cc1cnc2[nH]cc(Cc3ccc(Nc4ccc(C5CC5)nc4)nc3F)c2c1" is ____.
Result: > 7.00
